tgt: Zinc finger protein mex-5 (Caenorhabditis elegans, UniProt Q9XUB2)
Sequence (Q9XUB2 whole entry): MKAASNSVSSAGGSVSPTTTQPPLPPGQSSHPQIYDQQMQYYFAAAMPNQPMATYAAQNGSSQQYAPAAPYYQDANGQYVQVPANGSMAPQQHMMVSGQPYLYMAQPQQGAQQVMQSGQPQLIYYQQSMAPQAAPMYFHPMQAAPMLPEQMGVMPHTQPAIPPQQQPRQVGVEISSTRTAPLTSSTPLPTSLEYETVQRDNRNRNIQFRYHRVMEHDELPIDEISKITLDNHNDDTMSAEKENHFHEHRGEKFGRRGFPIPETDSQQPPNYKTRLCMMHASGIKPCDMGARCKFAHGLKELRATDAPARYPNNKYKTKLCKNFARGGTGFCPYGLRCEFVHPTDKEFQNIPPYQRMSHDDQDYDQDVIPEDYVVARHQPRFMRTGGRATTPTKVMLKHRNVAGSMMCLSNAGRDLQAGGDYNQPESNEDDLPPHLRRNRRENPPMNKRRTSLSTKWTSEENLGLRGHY
test: MEX-5/TCR-2 RNA interaction inhibitors, dose response, biochemical, C. elegans, fluorescence polarization (AID 1960)
The source made the active and inactive calls. Rule as the data show it: actives have a measured EC50 and inactives only a lower limit.

| compound | tgt | EC50 |
| --- | --- | --- |
| CCCSc1nnc2nc3c(nn12)c1ccccc1n3C | Zinc finger protein mex-5 (Caenorhabditis elegans, UniProt Q9XUB2) | 76.6 µM (active) |
| O=C(CSCc1c(Cl)cccc1Cl)NCC1CCCO1 (configuration not stated) | Zinc finger protein mex-5 (Caenorhabditis elegans, UniProt Q9XUB2) | > 300 µM (not active) |
| Cn1c(C(=O)NCCCN2CCOCC2)cc2c(=O)n(C)c3ccccc3c21 | Zinc finger protein mex-5 (Caenorhabditis elegans, UniProt Q9XUB2) | > 300 µM (not active) |
| COC(=O)C1=C(C)N=C2SC(C#N)=C(N)N2C1c1cccc(OC)c1 (configuration not stated) | Zinc finger protein mex-5 (Caenorhabditis elegans, UniProt Q9XUB2) | > 300 µM (not active) |
| O=C(O)C1Nc2ccc(Br)cc2C2C=CCC12 (configuration not stated) | Zinc finger protein mex-5 (Caenorhabditis elegans, UniProt Q9XUB2) | 6.32 µM (active) |
| Cc1cc2c3c(c1C)C1(C(=O)N3C(C)(C)CC2C)C(C#N)=C(N)OC2=C1C(=O)CC(C)(C)C2 (configuration not stated) | Zinc finger protein mex-5 (Caenorhabditis elegans, UniProt Q9XUB2) | > 300 µM (not active) |
| CCC(C)N1C(=O)/C(=C\NNc2nc3c(c(=O)n(C)c(=O)n3C)n2C)C(=O)NC1=S (configuration not stated) | Zinc finger protein mex-5 (Caenorhabditis elegans, UniProt Q9XUB2) | 38.6 µM (active) |

Hello, the source for this data is ChEMBL document CHEMBL1201862, in case you need it.
